Sourced from paper PMC6332235

compound: Nc1nc(Cl)c2ncn(Cc3cn(C[C@H](OCc4ccccc4)[C@@H](O)P(=O)(OCc4ccccc4)OCc4ccccc4)nn3)c2n1 [(1S,2S)-17k]
melting point: 76 to 78 °C
//
compound: CCOP(=O)(OCC)C(O)Cn1cc(Cn2cnc3c(Cl)nc(N)nc32)nn1 (centres unmarked) [Compound 17e]
melting point: 174 to 175 °C
//
compound: CCOP(=O)(OCC)C(O)Cn1cc(Cn2cnc3c(=O)[nH]c(N)nc32)nn1 (centres unmarked) [Compound 16e]
melting point: > 265 °C
//
compound: CCOP(=O)(COCCn1cc(Cn2cnc3c(=O)[nH]c(N)nc32)nn1)OCC [Compound 16h]
melting point: 89 to 92 °C
//
compound: CCOP(=O)(CNC(=O)Cn1cc(Cn2cnc3c(=O)[nH]c(N)nc32)nn1)OCC [Compound 16j]
melting point: > 230 °C
